TGT: Lysine-specific demethylase 4E (Homo sapiens, UniProt B2RXH2)
TEST_NAME: Inhibition of N-terminal His6-tagged KDM4E (1 to 337 residues) (unknown origin) expressed in Escherichia coli BL21 (DE3)-R3 preincubated for 10 mins followed by alpha-KG addition after CTH addition for 2 hrs by ELISA
REPORTED_PROPERTY: IC50 (µM)
Write it as a number; the unit µM goes unstated.

stdin: For the record "COC(=O)Cc1cc(O)n(-c2nc3ccccc3[nH]2)n1" , what value of IC50 is listed for Lysine-specific demethylase 4E (Homo sapiens, UniProt B2RXH2)?
stdout: 581

----------
TGT: Lysine-specific demethylase 4E (Homo sapiens, UniProt B2RXH2)
Sequence (B2RXH2 whole entry): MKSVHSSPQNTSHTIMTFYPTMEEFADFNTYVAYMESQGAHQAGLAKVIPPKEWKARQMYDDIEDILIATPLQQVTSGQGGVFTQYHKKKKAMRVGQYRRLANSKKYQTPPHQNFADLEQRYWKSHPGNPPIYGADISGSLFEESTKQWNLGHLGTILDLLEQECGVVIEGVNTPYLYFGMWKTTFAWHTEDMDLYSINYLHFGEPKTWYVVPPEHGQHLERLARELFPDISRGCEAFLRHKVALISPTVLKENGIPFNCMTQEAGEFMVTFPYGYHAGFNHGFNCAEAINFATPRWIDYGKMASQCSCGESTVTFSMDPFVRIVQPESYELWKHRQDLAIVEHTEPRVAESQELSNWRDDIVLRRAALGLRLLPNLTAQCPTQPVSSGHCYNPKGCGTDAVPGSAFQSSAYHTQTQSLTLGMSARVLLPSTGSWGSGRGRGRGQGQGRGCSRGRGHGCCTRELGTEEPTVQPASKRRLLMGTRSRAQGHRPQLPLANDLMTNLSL
TEST_NAME: Inhibition of N-terminal His6-tagged KDM4E (1 to 337 residues) (unknown origin) expressed in Escherichia coli BL21 (DE3)-R3 preincubated for 10 mins followed by substrate addition by fluorescence based FDH-coupled assay
REPORTED_PROPERTY: IC50 (µM)
Field: numeric (µM). Do not append units.

Examples from the recorded data:
* COC(=O)CCc1nn(-c2nc3ccccc3[nH]2)c(O)c1C | 106
* C#CCc1c(C)nn(-c2nc3ccccc3[nH]2)c1O | 5
* Cc1ccc(-c2c(C)nn(-c3nc4ccccc4[nH]3)c2O)cc1 | 27
* Cc1nn(-c2nc3ccccc3[nH]2)c(N)c1-c1ccccc1 | 160
* Cc1c(CCC(=O)O)nn(-c2nc3ccccc3[nH]2)c1O | 437

stdin: Quick one: IC50 for "O=C(O)Cc1cc(O)n(-c2nc3ccccc3[nH]2)n1" ?
stdout: 347

stdin: Can you share its IC50? I mean this molecule: "COC(=O)Cc1cc(O)n(-c2nc3ccccc3[nH]2)n1"
stdout: 15
